- Read-out: NAD(P)H dehydrogenase [quinone] 1 (NQO1), NQO1 (gene 1728)
- procedureText: LTEA_HepaRG_NQO1: Life Technologies and Expression Analysis (LTEA) Assay for NAD(P)H dehydrogenase [quinone] 1 (NQO1) using HepaRG (AID 2283526)
- assayConditions: mRNA level, 48 h; actives raise or lower the signal
Active and inactive are the calls of the source. The calls were made as follows: active = hit-call score of the fitted dose curve at least 0.9, where 1 is the maximum; inactive = score below 0.9.
Outcome codes: active, inactive

compound	classification
CC(=O)OC[C@H]1O[C@@](COC(C)=O)(O[C@H]2O[C@H](COC(C)=O)[C@@H](OC(C)=O)[C@H](OC(C)=O)[C@H]2OC(C)=O)[C@@H](OC(C)=O)[C@@H]1OC(C)=O	inactive
C1=CCCC=CCCC=CCC1	inactive
CC[C@H]1CC[C@H](NCc2cc3c(cc2OC)[C@H]2C[C@H]2C(=O)N3C)[C@H](c2ccccc2)N1	inactive
COc1ccc(/C=C/S(=O)(=O)NC(=O)c2ccc(C)cc2Cl)cc1	inactive
Cc1ccc(S(=O)(=O)O)cc1C	inactive
CCc1cc(SCc2sc(-c3ccc(C(F)(F)F)cc3)nc2CN2CCN(c3ccc(OC)cc3)CC2)ccc1OCC(=O)O	active
CC(O)CN(CCN(CC(C)O)CC(C)O)CC(C)O (stereo unspecified)	inactive
CCOC(=O)CC(CC(=O)OCC)(OC(C)=O)C(=O)OCC	inactive
O=C(O)c1cc(N=Nc2ccc(S(=O)(=O)Nc3ccccn3)cc2)ccc1O	inactive
CC(C)CC(C)(O)C#CC(C)(O)CC(C)C (stereo unspecified)	inactive
Cc1c(-c2cccnc2)c2ccccc2n1CCCCC(=O)O	inactive
CCCN(C1CCN(C(=O)C2CCNCC2)CC1)[C@@H]1CCc2ccc(OC)cc2C1	inactive
COc1ccc(-n2nc(C(F)F)cc2-c2ccc(S(C)=O)cc2)cc1 (stereo unspecified)	inactive
COc1ccc2sc(C(=O)Nc3nnn[nH]3)c(OC(C)C)c2c1	inactive
COCCOCCOCCOC	inactive
O=C(O)CCN(C1(C(=O)NO)CCCC1)S(=O)(=O)c1ccc(Oc2ccc(F)cc2)cc1	inactive
CNCc1ccc(NC(=O)c2c[nH]c3c2C(=O)CCC3)cc1	inactive
CCN(C(=O)c1cc(C)cc(OC[C@H](C)Nc2ccncc2)c1)C(C)C	inactive
CC(C)(O)c1coc(S(=O)(=O)NC(=O)Nc2c3c(cc4c2CCC4)CCC3)c1	inactive
O=c1[nH]c2ccc(S(=O)CCN3CCC(Cc4ccc(F)cc4)CC3)cc2o1 (stereo unspecified)	inactive
On1ccccc1=S	inactive
CN(C)c1ccc(N=NS(=O)(=O)O)cc1	inactive
O=C(O)c1cccc(N(Cc2cccnc2)c2ccc(OC(F)F)c(OC(F)F)c2)c1	inactive
COCCOc1cc2cc(C(=O)NC3CCN(C(C)C)CC3)n(CC(=O)Nc3ccc(Cl)cn3)c2cn1	inactive
CC(C)=CCCC(C)CCO (stereo unspecified)	inactive
Cc1[nH]cnc1C[C@H]1CCc2c(C)c3ccccc3n2C1=O	inactive
